- Assayed system: Dihydroorotate dehydrogenase (quinone), mitochondrial (Plasmodium falciparum (isolate 3D7)) (UniProt Q08210)
- Sequence (Q08210 whole entry, looked up): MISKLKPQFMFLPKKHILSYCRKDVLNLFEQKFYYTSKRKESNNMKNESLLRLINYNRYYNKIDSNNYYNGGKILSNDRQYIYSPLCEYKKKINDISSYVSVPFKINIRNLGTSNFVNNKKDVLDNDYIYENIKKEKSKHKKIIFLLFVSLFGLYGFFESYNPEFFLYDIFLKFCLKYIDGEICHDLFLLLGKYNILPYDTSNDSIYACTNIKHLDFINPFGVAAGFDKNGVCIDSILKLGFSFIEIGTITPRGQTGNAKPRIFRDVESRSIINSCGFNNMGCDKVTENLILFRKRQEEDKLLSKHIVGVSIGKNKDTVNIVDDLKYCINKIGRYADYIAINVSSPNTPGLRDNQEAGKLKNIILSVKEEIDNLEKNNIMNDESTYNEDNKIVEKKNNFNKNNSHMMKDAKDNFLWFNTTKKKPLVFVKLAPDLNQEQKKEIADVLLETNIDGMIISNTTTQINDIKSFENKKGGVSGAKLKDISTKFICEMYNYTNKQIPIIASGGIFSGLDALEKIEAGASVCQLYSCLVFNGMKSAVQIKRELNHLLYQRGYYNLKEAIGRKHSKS
- Experimental details: inhibition of P. falciparum DHODH – biochemical, C-terminal His tag, absorbance 600 nm, primary screen (AID 1175);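 note: recombinant parasite enzyme with a five histidine tag at its C terminus; test concentration not given here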
- Setup conditions: PfDHODH enzyme, DCIP absorbance 600 nm; higher = more signal, called active from +8 up or from −8 down
Calls of active or inactive are those of the source.
Measured parameter: composite z-score

These solved cases illustrate the format of a correct answer.
• CO[C@H]1O[C@H](CO)[C@@H](OC(=O)Nc2ccc(Br)cc2)[C@@H]2OC(=O)[C@H](Cc3cccc(Br)c3)C/C=C/C[C@@H](Cc3cccc(Br)c3)C(=O)O[C@@H]12 = -2.81 (inactive)
• CC(C)CCC[C@@H](C)[C@H]1CC[C@@]2(C)C3=C(CC[C@]12C)[C@@]1(C)CC[C@H](OC(=O)c2ccc(C(F)(F)F)nc2)C(C)(C)C1CC3 (stereo partly drawn) = -1.08 (inactive)

Consider now this further molecule.
Q) Answer with the recorded composite z-score of CC(=O)NCCCC[C@@H]1NC(=O)[C@H]2C[C@@H](C(=O)NCCCCCNC(=O)CS)[C@@H](c3ccc(O)cc3)N2C1=O only.
A) 0.452 (inactive)
